molecular target: CDK2/Cyclin E1 (Homo sapiens, UniProt P24941); construct: utilize full-length human CDK2 co-expressed as N-terminal GST-tagged protein; GST (N); assay: CDK2/Cyclin E1 HTRF enzyme activity assay (Example A); settings: 1 mM ATP
Would you mind telling me the reported IC50 of each entry?

Record O=C1N(C2CCCC2)c2nc(NC3CCN(S(=O)(=O)C4CCOCC4)CC3)ncc2C12CC2 [Example B4] , field IC50: 100 to 500 nM

Per the record, Cc1ccccc1N1C(=O)C2(CC2)c2cnc(NC3CCN(S(C)(=O)=O)CC3)nc21 [Example B9] has IC50 of 100 to 500 nM

Sure, the documented IC50 for CC1CC(Nc2ncc3c(n2)N(C2CCCC2)C(=O)C32CC2)CCN1S(C)(=O)=O (stereo not shown) [Example B1] is 100 to 500 nM

What the record says about O=C1N([C@@H]2CCC[C@@H](O)C2)c2nc(NC3CCN(S(=O)(=O)c4cccc(N5CCC5)n4)CC3)ncc2C12CC2 [Example B13] : IC50 is ≤ 50 nM

###

molecular target: CDK2/Cyclin E1 (Homo sapiens); construct: utilize full-length human CDK2 co-expressed as N-terminal GST-tagged protein; GST (N); purchased Carna 04-165; host or cells: baculovirus expression system; assay: CDK2/Cyclin E1 HTRF enzyme activity assay (Example A); assay type: biochemical; conditions: 1 mM ATP
pIC50: −log10 of the molar value.
Kindly supply the reported pIC50 values for the records listed here.

The compound identified as CCC(C(F)F)N1C(=O)C(C)(C)Cc2cnc(NC3CCN(S(C)(=O)=O)CC3)nc21 (racemic) registered its pIC50 at 7.00 to 7.30

Just so you know, measured pIC50 for `CS(=O)(=O)N1CCC(Nc2ncc3c(n2)N(C2CCCC2)C(=O)C32CC2)CC1` came out at 6.30 to 7.00

// `Cn1cc(S(=O)(=O)N2CCC(Nc3ncc4c(n3)N([C@@H]3CCC[C@@H](O)C3)C(=O)C43CC3)CC2)cn1` : pIC50 value = ≥ 7.30

Data point: `O=C1N(c2cc3c(cc2Cl)CNCC3)c2nc(NC3CCN(S(=O)(=O)c4ncc[nH]4)CC3)ncc2C12CC2` ; pIC50 = ≥ 7.30

Please fill in: pIC50 reported for C[C@@]1(O)CCC[C@H]1N1C(=O)C2(CC2)c2cnc(NC3CCN(S(=O)(=O)c4ncc[nH]4)CC3)nc21 (relative stereo) = ≥ 7.30

So, `O=C1N(C2CCCC2)c2nc(NC3CCN(S(=O)(=O)C4CC4)CC3)ncc2C12CC2` ? Its pIC50 was ≥ 7.30

Form field pIC50, entry `O=C1N(C2CCCC2)c2nc(NC3CCN(S(=O)(=O)c4cccnc4)CC3)ncc2C12CC2` : ≥ 7.30

response.value for CC1(C)Cc2cnc(NC3CCN(S(C)(=O)=O)CC3)nc2N(C2CCOC2)C1=O (racemic) (field: pIC50) = 6.30 to 7.00

Field pIC50 (entry `C[C@@H](C1CC1)N1C(=O)C2(CC2)c2cnc(NC3CCN(S(=O)(=O)c4ccc(=O)[nH]c4)CC3)nc21` ) reads ≥ 7.30

Looking up CCC(C(F)F)N1C(=O)C2(CC2)c2cnc(NC3CCN(S(C)(=O)=O)CC3)nc21 (racemic) , I found its pIC50 recorded as ≥ 7.30

Value of pIC50 reported for the compound `CC1(C)Cc2cnc(NC3CCN(S(C)(=O)=O)CC3)nc2N(C2CCCC2)C1=O` is ≥ 7.30

The measured pIC50 associated with `CC1(C)Cc2cnc(NC3CCN(S(C)(=O)=O)CC3)nc2N(c2ccccc2)C1=O` reads 6.30 to 7.00

Record CC1CCCC1N1C(=O)C2(CC2)c2cnc(NC3CCN(S(C)(=O)=O)CC3)nc21 (mixture of isomers) , field pIC50: ≥ 7.30

Recorded result, `Cc1c(N2C(=O)C3(CC3)c3cnc(NC4CCN(S(C)(=O)=O)CC4)nc32)cnn1C` , pIC50: 7.00 to 7.30

Item: `CC1(C)Cc2cnc(Nc3ccc(S(N)(=O)=O)cc3)nc2N(C2CCCC2)C1=O` | pIC50: ≥ 7.30

###

Exercise: for every item that follows, state its recorded IC50.
Biological target: CDK2/Cyclin E1 (Homo sapiens, UniProt P24941)
Construct: utilize full-length human CDK2 co-expressed as N-terminal GST-tagged protein; GST (N)
Test: CDK2/Cyclin E1 HTRF enzyme activity assay (Example A)
Conditions: 1 mM ATP
Description: CDK2/Cyclin E1 enzyme activity assays utilize full-length human CDK2 co-expressed as N-terminal GST-tagged protein with FLAG-Cyclin E1 in a baculovirus expression system (Carna Product Number 04-165). […] HTRF signals are read after 1 hour at room temperature on a PHERAstar FS plate reader (BMG Labtech). Data is analyzed with IDBS XLFit and GraphPad Prism 5.0 software using a three or four parameter dose response curve to determine IC50 for each compound.

Just so you know, measured IC50 for `O=C1N(C2CCCC2)c2nc(NC3CCN(S(=O)(=O)c4ccc(Cl)cc4)CC3)ncc2C12CC2` came out at 50 to 100 nM

Reported IC50 of `CCn1cnc(S(=O)(=O)N2CCC(Nc3ncc4c(n3)N(c3cc(F)ccc3Cl)C(=O)C43CC3)CC2)c1` : ≤ 50 nM

Consider `Cn1nccc1CN1C(=O)C(C)(C)Cc2cnc(NC3CCN(S(C)(=O)=O)CC3)nc21` . Its measured IC50 is 100 to 500 nM

Reported IC50 of `C[C@@H](C1CC1)N1C(=O)C2(CC2)c2cnc(NC3CCN(S(=O)(=O)c4ncc[nH]4)CC3)nc21` : ≤ 50 nM

The measured IC50 associated with `Cn1cc(S(=O)(=O)N2CCC(Nc3ncc4c(n3)N(C3CCCC3)C(=O)C43CC3)CC2)cn1` reads ≤ 50 nM

Short answer for `CCN1CC(n2cc(S(=O)(=O)N3CCC(Nc4ncc5c(n4)N([C@@H](C)C4CC4)C(=O)C54CC4)CC3)cn2)C1` : IC50 was ≤ 50 nM
